# test system: T1, human HER3/ErbB3 extracellular domain (human, UniProt P21860 20-643)
# T1 construct: extracellular domain; the range 1-643 of M34309 is printed only for the immunogen; also called Human HER3 ECD; recombinant human HER3
# T1 sequence (P21860 20-643): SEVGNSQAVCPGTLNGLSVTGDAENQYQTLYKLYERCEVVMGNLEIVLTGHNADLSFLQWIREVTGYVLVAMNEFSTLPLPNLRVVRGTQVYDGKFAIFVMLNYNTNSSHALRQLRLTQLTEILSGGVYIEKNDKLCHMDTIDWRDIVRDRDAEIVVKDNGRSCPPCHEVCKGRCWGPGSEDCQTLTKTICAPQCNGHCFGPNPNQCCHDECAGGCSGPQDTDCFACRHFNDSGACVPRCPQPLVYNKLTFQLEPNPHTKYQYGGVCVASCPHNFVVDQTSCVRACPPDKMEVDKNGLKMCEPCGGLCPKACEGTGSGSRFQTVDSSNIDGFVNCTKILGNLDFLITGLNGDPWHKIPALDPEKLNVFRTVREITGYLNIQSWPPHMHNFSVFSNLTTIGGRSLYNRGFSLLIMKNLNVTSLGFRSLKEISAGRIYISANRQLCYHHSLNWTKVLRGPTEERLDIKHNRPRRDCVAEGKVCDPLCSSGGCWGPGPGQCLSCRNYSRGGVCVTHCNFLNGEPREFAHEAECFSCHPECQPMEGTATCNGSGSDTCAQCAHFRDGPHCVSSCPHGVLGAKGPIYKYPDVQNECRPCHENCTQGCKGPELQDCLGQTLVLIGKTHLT
# test description: SPR, Biacore T-100, HER3 ECD
readout: kon (M⁻¹ s⁻¹)
Numbers only, in M⁻¹ s⁻¹.

Ask: Value lookup for kon; key = HER3-hMab-A14 (antibody, V domains shown) VH: QVQLVESGGGLVQPGGSLRLSCSASGFSFSSSYWICWVRQAPGKGLELIGYIWSGNGATYYASWAKGRFTISRDTSKNTVYLQMNSLRAEDTAVYFCARNYDASGYGIFHLWGPGTLVTVSS VL: DIQMTQTPSSLSASVGDRVTINCQASQSIVSSYLSWYQQKPGKPPKLLIYSASKLASGVPSRFSGSGSGTDFTLTISSLQPEDFATYYCLYGVDSSNIDNAFGGGTKVEIK
Result: 201000
